condition-parameters: buffer; pH 7.4; 6.0 h; 150.0 µM
The entries below are paired with their reported solubility kinetic.
Quick reminder: number only, in µg/mL, skip the unit.

Looking up O=S(=O)(c1ccccc1)N1CCN(c2nc(-c3ccc(Br)cc3)cs2)CC1 , I found its solubility kinetic recorded as 1.23

Looking up COc1ccccc1CNc1ccc(S(=O)(=O)Nc2nccs2)cc1 , I found its solubility kinetic recorded as 37.4

Looking up Cc1ccnc(NC(=S)N2CCC(c3cccc(C(F)(F)F)c3)CC2)c1 , I found its solubility kinetic recorded as 7.75

Others:
Looking up CCc1ccc(C2C(C(=O)Nc3ccccc3OC)=C(C)Nc3c(C(=O)Nc4ccc(C)cc4)cnn32)cc1 (stereo not given) , I found its solubility kinetic recorded as 5.74

* * *

The entries below are paired with their reported solubility kinetic.
condition-parameters: buffer; pH 7.4; 6.0 h; 150.0 µM

Below: 8 molecules and their reported solubility kinetic.
Looking up COc1c(C)cc(NC(=O)c2nn(Cc3ccc(F)cc3)c3c2CN(C(=O)c2ccc[nH]2)C[C@]3(C)C(N)=O)cc1C , I found its solubility kinetic recorded as < 1 µg/mL

Looking up N#Cc1cccc(-c2nccc(-n3ccnc3)n2)c1 , I found its solubility kinetic recorded as 7.26 µg/mL

Looking up Clc1ccc(-c2nnc(C3CCCCC3)o2)cc1 , I found its solubility kinetic recorded as < 1 µg/mL

Looking up Cc1nc(N)nc2ccccc12 , I found its solubility kinetic recorded as > 24 µg/mL

Looking up Cc1cc(C)nc(NS(=O)(=O)c2ccc(NC(=S)NC(=O)COc3ccc(Br)cc3Cl)cc2)n1 , I found its solubility kinetic recorded as > 100 µg/mL

Looking up CN1CCN(c2ccc(-c3cccc(CN4CCOCC4)c3)cc2NC(=O)c2c[nH]c(=O)cc2C(F)(F)F)CC1 , I found its solubility kinetic recorded as 69.1 µg/mL

Looking up Cc1cccc(-c2csc(N3CCC(C(N)=O)CC3)n2)c1 , I found its solubility kinetic recorded as > 45 µg/mL

Looking up Fc1cc(Nc2nc(-c3ccncc3)nc3ccccc23)ccc1-c1cccc(OC(F)F)c1 , I found its solubility kinetic recorded as < 1 µg/mL

Others:
Looking up COc1cccc(CC(=O)Nc2nc(-c3ccc4c(c3)CCN4C(=O)c3ccccc3C)c(C)s2)c1 , I found its solubility kinetic recorded as < 1 µg/mL

Looking up FC(F)(F)c1ccc(N2CCN(C(=S)Nc3ccccn3)CC2)cc1 , I found its solubility kinetic recorded as 8.21 µg/mL

* * *

condition-parameters: buffer; pH 7.4; 6.0 h; 150.0 µM
Respond with YES for solubility kinetic values of 3 µg/mL and above, NO for values below.

# count of solved cases: 2
Hi, just wondering whether Cc1cnc(-c2ccccc2C(C)C)nc1NCC1CCN(C2COC2)CC1 shows solubility kinetic of 3 µg/mL or higher.
YES

Hi, just wondering whether Cc1cccc(-n2c(C)cc(C=C(C#N)C#N)c2C)c1 shows solubility kinetic of 3 µg/mL or higher.
NO

Others:
Hi, just wondering whether N#Cc1ccc(NS(=O)(=O)c2ccc(NC(=O)Cc3ccc(Cl)c(Cl)c3)cc2)cc1 shows solubility kinetic of 3 µg/mL or higher.
NO

Hi, just wondering whether O=C(Nc1nc(-c2ccccc2)cs1)c1ccncc1NS(=O)(=O)c1c(F)cc(F)cc1F shows solubility kinetic of 3 µg/mL or higher.
YES

Hi, just wondering whether Cc1ccc(-n2c(C)cc(C3=NNC(=NC4CC4)SC3)c2C)cc1C shows solubility kinetic of 3 µg/mL or higher.
NO

Hi, just wondering whether CC1(C)CNc2cc(NC(=O)c3cccnc3NCc3ccncc3)ccc21 shows solubility kinetic of 3 µg/mL or higher.
YES

Hi, just wondering whether CC(=O)c1ccc(N2CCN(S(=O)(=O)c3ccc4c(c3)CC(=O)N4)CC2)cc1 shows solubility kinetic of 3 µg/mL or higher.
NO

* * *

condition-parameters: buffer; pH 7.4; 6.0 h; 150.0 µM
The entries below are paired with their reported solubility kinetic.

Looking up CCOC(=O)Cc1ccc(NC(=O)n2ncc3cc(Cl)ccc32)cc1 , I found its solubility kinetic recorded as < 1 µg/mL

Looking up Fc1cc(Nc2nc(-c3ccncc3)nc3ccccc23)ccc1-n1cncn1 , I found its solubility kinetic recorded as < 1 µg/mL

Looking up Cc1cc(N=Nc2ccc(S(=O)(=O)Nc3ccccn3)cc2)c(N)cc1O , I found its solubility kinetic recorded as 3.69 µg/mL

Others:
Looking up CCN1CCN(C(=O)CCCn2nc(C)c3c(C)n(-c4ccc(C)cc4)nc3c2=O)CC1 , I found its solubility kinetic recorded as > 43 µg/mL

Looking up Cc1ccnc(NC(=S)N2CCN(c3cccc(C(F)(F)F)c3)C[C@@H]2C)c1 , I found its solubility kinetic recorded as 3.88 µg/mL

* * *

The entries below are paired with their reported solubility kinetic.
condition-parameters: buffer; pH 7.4; 6.0 h; 150.0 µM

Looking up Cc1cnc(-c2ccccc2C(F)F)nc1NCC1CN(c2cnccn2)C1 , I found its solubility kinetic recorded as > 56 µg/mL

Others:
Looking up CC(C)Oc1cccc(C2CC(=O)Nc3cc4c(cc32)OCO4)c1 (stereo not given) , I found its solubility kinetic recorded as 1.53 µg/mL

Looking up COC(=O)c1ccc(NS(=O)(=O)c2c(C)nc3sccn3c2=O)cc1 , I found its solubility kinetic recorded as > 56 µg/mL

Looking up Cc1nc(N2CCN(c3ccccn3)CC2)c2c(C)c(C(=O)Nc3ccc(F)cc3Cl)sc2n1 , I found its solubility kinetic recorded as < 1 µg/mL

Looking up Cn1cnc(S(=O)(=O)Nc2cnccc2C(=O)Nc2nc(-c3ccccc3)cs2)c1 , I found its solubility kinetic recorded as > 65 µg/mL

* * *

condition-parameters: buffer; pH 7.4; 6.0 h; 150.0 µM
property-measured: solubility kinetic

Looking up Clc1ccc(-c2nc(-c3ccc(Br)o3)no2)c(Cl)c1 , I found its solubility kinetic recorded as < 1 µg/mL

Looking up O=C(C1CCN(c2nc(-c3ccc(Br)cc3)cs2)CC1)N1CCNCC1 , I found its solubility kinetic recorded as > 64 µg/mL

Looking up Cc1ccccc1OCC(O)CO (stereo not given) , I found its solubility kinetic recorded as > 27 µg/mL

Looking up Cc1ccc(S(=O)(=O)Nc2cnccc2C(=O)Nc2nc(-c3ccc(-c4ccccc4)cc3)cs2)cc1 , I found its solubility kinetic recorded as 0.487 µg/mL

* * *

condition-parameters: buffer; pH 7.4; 6.0 h; 150.0 µM
property-measured: solubility kinetic (µg/mL)
Quick reminder: number only, in µg/mL, skip the unit.

Looking up COc1ccc2[nH]c(C[C@@H]3C[C@@H](C(C)C)[C@H](CNCc4ccccc4O)C=C3C)nc2n1 , I found its solubility kinetic recorded as 42.1

Query molecule follows.
Looking up CC(=O)N1CCc2cc(S(=O)(=O)NCCC3=CCCCC3)ccc21 , I found its solubility kinetic recorded as 4.37

* * *

condition-parameters: buffer; pH 7.4; 6.0 h; 150.0 µM
Respond with 1 for solubility kinetic values of 30 µg/mL and above, 0 for values below.

Hi, just wondering whether S=c1[nH]c2ccccc2n1CCc1ccccc1 shows solubility kinetic of 30 µg/mL or higher.
0

Hi, just wondering whether C[C@@H](NC(=O)c1ncnc(N)c1Cl)c1ncc(C(=O)Nc2cc(C(F)(F)F)c(Cl)cn2)s1 shows solubility kinetic of 30 µg/mL or higher.
1

Hi, just wondering whether CCCCn1cnc2cc(NC(=O)c3cc(OC)c(OC)c(OC)c3)ccc21 shows solubility kinetic of 30 µg/mL or higher.
1

Others:
Hi, just wondering whether NC(=O)C1CCN(c2nc(-c3ccccc3Cl)cs2)CC1 shows solubility kinetic of 30 µg/mL or higher.
1

Hi, just wondering whether O=C1Nc2ccccc2/C1=C/c1cccc(C(=O)O)c1 shows solubility kinetic of 30 µg/mL or higher.
1

Hi, just wondering whether Cc1ccc(C)c(NC2=C(c3ccc(C(F)(F)F)cc3)C(=O)c3ccccc32)c1 shows solubility kinetic of 30 µg/mL or higher.
0

* * *

condition-parameters: buffer; pH 7.4; 6.0 h; 150.0 µM
property-measured: solubility kinetic

Below: 3 compounds and their reported solubility kinetic.
Looking up C=Cc1ccc(Cn2c(C(=O)O)c(CNC3CCCCC3)c3ccc(OC)cc32)cc1 , I found its solubility kinetic recorded as < 1 µg/mL

Looking up Cn1ccc2c(C(=O)NCc3cccnc3)nc(-c3ccc(CO)cc3)cc21 , I found its solubility kinetic recorded as > 82 µg/mL

Looking up Cc1ccc(S(=O)(=O)Nc2ccc(C(=O)Nc3nc(-c4ccc(Cl)cc4)cs3)cc2)cc1 , I found its solubility kinetic recorded as < 1 µg/mL

Query compound follows.
Looking up Cc1cnc(SCc2ccccn2)nc1C1CCCN(C(=O)c2scc3c2CCCC3)C1 (stereo not drawn) , I found its solubility kinetic recorded as 4.03 µg/mL

* * *

condition-parameters: buffer; pH 7.4; 6.0 h; 150.0 µM
The entries below are paired with their reported solubility kinetic.

Looking up c1ccc(CNc2cc3c(cn2)CN(Cc2cccnc2)CCN3)cc1 , I found its solubility kinetic recorded as 36.5 µg/mL

Others:
Looking up Cc1ccc(S(=O)(=O)Nc2ccccc2C(=O)Nc2ccc(-c3ccccc3)nc2)cc1 , I found its solubility kinetic recorded as < 1 µg/mL

Looking up O=C(NCc1ccncc1)c1nc(-c2cccnc2)c2cnccn12 , I found its solubility kinetic recorded as 40.8 µg/mL

Looking up COc1ccc(-c2c(-c3cc(C(=O)O)ccn3)ncn2C)cc1 , I found its solubility kinetic recorded as > 46 µg/mL

Looking up Clc1cccc(Nc2nc(-c3ccncc3)nc3ccccc23)c1 , I found its solubility kinetic recorded as < 1 µg/mL

Looking up Cc1cc(S(=O)(=O)Nc2cnccc2C(=O)Nc2nc(-c3ccccc3)cs2)c(C)o1 , I found its solubility kinetic recorded as > 67 µg/mL

Looking up CC(=O)c1ccc(N[S+](=O)([O-])c2cccc(NC(=O)c3[nH]c(C)c(C(C)=O)c3C)c2)cc1 , I found its solubility kinetic recorded as 21.3 µg/mL

Looking up Cc1ccc(-c2cc(C(=O)Nc3ccc(C#N)cc3)c3ccccc3n2)cc1C , I found its solubility kinetic recorded as < 1 µg/mL

Looking up COc1cc2c(Oc3ccc(-c4cnc(Nc5ccc(F)cc5)n(C)c4=O)cc3F)ccnc2cc1OCCCN1CCOCC1 , I found its solubility kinetic recorded as < 1 µg/mL

Looking up Cc1cc(-c2nnc3n2CCCCC3)c(C)n1-c1cccc(Cl)c1 , I found its solubility kinetic recorded as 36.5 µg/mL

Looking up COc1ccc2[nH]c3c(c2c1)CCNC31CCN(S(=O)(=O)c2c(C)noc2C)CC1 , I found its solubility kinetic recorded as 7.38 µg/mL
